- Test system: ZEAMA Sileno
- methodNotes: Safener seed treatment, pre-emergence herbicide, crop damage
- Assay type: in vivo, maize
- Parameters: key: % crop damage without safener minus % damage with safener
- condition: HER 40 g a.i./ha pre-emergence, isoxadifen-ethyl 0.25 g a.i./kg seed, 14 DAT
- Procedure: For the safener seed treatment, sufficient seeds of the respective crops (spring wheat, TRZAS; spring barley, HORVS; maize, ZEAMA) were weighed into screw top glass bottles approximately twice the volume of the seeds. The specified safeners, formulated as wettable powder (WP) were weighed out so that the specified rates (g a.i./kg seed) would be obtained, dissolved in water (1 ml water per 10 g of seeds), and added to the seeds to produce a slurry. […]
Exercise: for every item that follows, state its recorded Reduction [Difference].

State the recorded Reduction [Difference] for every item in the following list.
1. C=CC1(C(=O)NC2COC(C(=O)OC)C2)CC(c2cc(F)cc(F)c2)=NO1 (mixture of isomers) [Example 1.68]
2. COC(=O)C1C=CC(NC(=O)C2(C(F)(F)F)CC(c3cccc(F)c3)=NO2)C1 (stereo not drawn)

1: 23; 2: 25

* * *

Can you tell me Reduction [%] for the items I'm about to list?
- Test system: TRZAS Triso
- methodNotes: Safener seed treatment, pre-emergence herbicide, crop damage
- Assay type: in vivo, spring wheat
- condition: HER 15 g a.i./ha pre-emergence, isoxadifen-ethyl 0.25 g a.i./kg seed, 11 DAT (Interim)

C=CC1(C(=O)NC2C=CC(C(=O)OC)C2)CC(c2cc(F)cc(F)c2)=NO1 (centres unmarked) [Example 1.26] = 31%
CSCCOC(=O)C1C=CC(NC(=O)C2(C(F)(F)F)CC(c3cc(F)cc(F)c3)=NO2)C1 (centres unmarked) [Example 1.7] = 56%
COCCOC(=O)C1C=CC(NC(=O)C2(C)CC(c3cc(Cl)cc(C#N)c3)=NO2)C1 (centres unmarked) [Example 1.5] = 80%
COC(=O)C1C=CC(NC(=O)C2(C(F)(F)F)CC(c3cccc(F)c3)=NO2)C1 (centres unmarked) [Example 1.18] = 67%

For the next question, use this molecule.
Per the records, this molecule ( CC1(C(=O)NC2C=CC(C(=O)O)C2)CC(c2cc(F)cc(F)c2)=NO1 (centres unmarked) [Example 1.36] ) has Reduction [%] equal to 29%

* * *

- Tested on: ZEAMA Sileno
- methodNotes: Safener seed treatment, pre-emergence herbicide, crop damage
- Type: in vivo, maize
- Design: key: % crop damage without safener minus % damage with safener
- condition: HER 40 g a.i./ha pre-emergence, isoxadifen-ethyl 0.25 g a.i./kg seed, 26 DAT
Please go through the items and note down their Reduction [Difference].
Answers are plain numbers.

C=CC1(C(=O)NC2COC(C(=O)OC)C2)CC(c2cc(F)cc(F)c2)=NO1 (centres unmarked) [Example 1.70] = 45
COC(=O)C1OCCC1NC(=O)C1(C)CC(c2cc(F)cc(F)c2)=NO1 (centres unmarked) = 60
COC(=O)C1=CC(NC(=O)C2(C)CC(c3cc(F)cc(F)c3)=NO2)CC1 (centres unmarked) = 25
C=CC1(C(=O)NC2COC(C(=O)OC)C2)CC(c2cc(F)cc(F)c2)=NO1 (centres unmarked) [Example 1.69] = 25

// moving on: another record for Reduction [Difference]
According to the records, this compound C=CC1(C(=O)NC2C=CC(C(=O)OC)C2)CC(c2cc(F)cc(F)c2)=NO1 (centres unmarked) displays Reduction [Difference] of 45

* * *

- System: ZEAMA Abraxas
- methodNotes: Tank-mix post-emergence crop damage, greenhouse, visual assessment
- Format: in vivo, maize
- condition: HER 32 g a.i./ha, no safener, Final assessment
# binarize HER effect: threshold 60% inclusive, high side fulfilled, low side not fulfilled

Example entries begin here.
C=CC1(C(=O)NC2C=CC(C(=O)O)C2)CC(c2cc(F)cc(F)c2)=NO1 (stereo not shown) [Example 1.58] = fulfilled
CC1(C(=O)NC2C=CC(C(=O)OCCCl)C2)CC(c2cc(F)cc(F)c2)=NO1 (mixture of isomers) [Example 1.47] = fulfilled
COCCOC(=O)C1C=CC(NC(=O)C2(CCl)CC(c3cc(F)cc(F)c3)=NO2)C1 (stereo not shown) [Example 1.1] = fulfilled

Reported HER effect at or above 60%? COC(=O)C1C=CC(NC(=O)C2(C(F)(F)F)CC(c3cc(C)cc(F)c3)=NO2)C1 (mixture of isomers) [Example 1.22]
not fulfilled

Record C=CC1(C(=O)NC2CC=C(C(=O)OC)C2)CC(c2cc(F)cc(F)c2)=NO1 (mixture of isomers) [Example 1.60] ; criterion: HER effect no lower than 60%. Met?
fulfilled

Does the molecule C=CC1(C(=O)NC2C=C(C(=O)OCCOC)OC2)CC(c2cc(C)cc(F)c2)=NO1 (stereo not shown) [Example 1.89] have recorded HER effect that is 60% or more?
not fulfilled

Determine whether measured HER effect meets or exceeds 60% for C=CC1(C(=O)NC2COC(C(=O)OC)C2)CC(c2cc(C)cc(F)c2)=NO1 (mixture of isomers) [Example 1.71]
fulfilled

* * *

- Tested on: ZEAMA Abraxas
- methodNotes: Tank-mix post-emergence crop damage, greenhouse, visual assessment
- Type: in vivo, maize
- condition: HER 8 g a.i./ha, isoxadifen-ethyl 50 g a.i./ha, Final
readoutLabel: Reduction [%] (%)
One number for each entry, in %.

Answered examples (5):
C=CC1(C(=O)NC2C=C(C(=O)OCCOC)OC2)CC(c2cc(C)cc(F)c2)=NO1 (stereo not shown) = 90
C=CC1(C(=O)NC2COC(C(=O)OCc3ccc(OC)cc3)C2)CC(c2cc(C)cc(F)c2)=NO1 (mixture of isomers) = 63
C=CC1(C(=O)NC2CC=C(C(=O)OC)C2)CC(c2cc(F)cc(F)c2)=NO1 (mixture of isomers) = 64
CC1(C(=O)NC2COC(C(=O)OCc3cccc(F)c3)C2)CC(c2cc(F)cc(F)c2)=NO1 (mixture of isomers) = 63
C=CC1(C(=O)NC2C=CC(C(=O)O)C2)CC(c2cc(F)cc(F)c2)=NO1 (stereo not shown) = 73

Kindly give each listed record's Reduction [%].
1. C=CC1(C(=O)NC2COC(C(=O)OC)C2)CC(c2cc(C)cc(F)c2)=NO1 (mixture of isomers)
2. COCCOC(=O)C1C=CC(NC(=O)C2(CCl)CC(c3cc(F)cc(F)c3)=NO2)C1 (stereo not shown)

1. 71
2. 78

* * *

- Test system: ZEAMA Abraxas
- methodNotes: Tank-mix post-emergence crop damage, greenhouse, visual assessment
- Type: in vivo, maize
- Design: key: % injury reduction: damage without minus with safener (0–100% scale)
- condition: HER 8 g a.i./ha, isoxadifen-ethyl 50 g a.i./ha, Final
readoutLabel: Reduction [Difference]
One number for each entry.

Consider the worked cases shown below.
CC1(C(=O)NC2COC(C(=O)OCc3cccc(F)c3)C2)CC(c2cc(F)cc(F)c2)=NO1 (mixture of isomers) = 57
C=CC1(C(=O)NC2COC(C(=O)OC)C2)CC(c2cc(C)cc(F)c2)=NO1 (mixture of isomers) = 41

Here is another compound to look at.
COCCOC(=O)C1C=CC(NC(=O)C2(CCl)CC(c3cc(F)cc(F)c3)=NO2)C1 (stereo not drawn) on ZEAMA Abraxas gives Reduction [Difference] = 73

* * *

- Test system: ZEAMA Abraxas
- methodNotes: Tank-mix post-emergence crop damage, greenhouse, visual assessment
- Assay type: in vivo, maize
- Parameters: key: % injury reduction: damage without minus with safener (0–100% scale)
- condition: HER 8 g a.i./ha, isoxadifen-ethyl 50 g a.i./ha, Final
readoutLabel: Reduction [Difference]
Answers are plain numbers.

C=CC1(C(=O)NC2C=CC(C(=O)O)C2)CC(c2cc(F)cc(F)c2)=NO1 (stereo not shown) = 45
C=CC1(C(=O)NC2C=C(C(=O)OCCOC)OC2)CC(c2cc(C)cc(F)c2)=NO1 (stereo not shown) = 27
C=CC1(C(=O)NC2COC(C(=O)OCc3ccc(OC)cc3)C2)CC(c2cc(C)cc(F)c2)=NO1 (mixture of isomers) = 20

# evaluate next
# Reduction [Difference] of C=CC1(C(=O)NC2CC=C(C(=O)OC)C2)CC(c2cc(F)cc(F)c2)=NO1 (mixture of isomers) = 35

* * *

- Tested on: TRZAS Triso
- methodNotes: Safener seed treatment, pre-emergence herbicide, crop damage
- Type: in vivo, spring wheat
- condition: HER 15 g a.i./ha pre-emergence, no safener, 11 DAT (Interim)
Please provide measured HER effect for the entries that follow.
Give bare numbers, in %.

COC(=O)C1C=CC(NC(=O)C2(C(F)(F)F)CC(c3cccc(F)c3)=NO2)C1 (centres unmarked) = 45
COCCOC(=O)C1C=CC(NC(=O)C2(C)CC(c3cc(Cl)cc(C#N)c3)=NO2)C1 (centres unmarked) = 25
C=CC1(C(=O)NC2C=CC(C(=O)OC)C2)CC(c2cc(F)cc(F)c2)=NO1 (centres unmarked) = 65

Look up HER effect for the entries below, preserving their order.
1. CSCCOC(=O)C1C=CC(NC(=O)C2(C(F)(F)F)CC(c3cc(F)cc(F)c3)=NO2)C1 (centres unmarked)
2. CC1(C(=O)NC2C=CC(C(=O)O)C2)CC(c2cc(F)cc(F)c2)=NO1 (centres unmarked)

1. 45
2. 70
